- assayed system: T1, hACE2 purified protein (human (printed as hACE2), UniProt Q9BYF1 18-740)
- T1 construct: also called CM5-hACE2 chip
- T1 sequence (Q9BYF1 18-740 limits assumed): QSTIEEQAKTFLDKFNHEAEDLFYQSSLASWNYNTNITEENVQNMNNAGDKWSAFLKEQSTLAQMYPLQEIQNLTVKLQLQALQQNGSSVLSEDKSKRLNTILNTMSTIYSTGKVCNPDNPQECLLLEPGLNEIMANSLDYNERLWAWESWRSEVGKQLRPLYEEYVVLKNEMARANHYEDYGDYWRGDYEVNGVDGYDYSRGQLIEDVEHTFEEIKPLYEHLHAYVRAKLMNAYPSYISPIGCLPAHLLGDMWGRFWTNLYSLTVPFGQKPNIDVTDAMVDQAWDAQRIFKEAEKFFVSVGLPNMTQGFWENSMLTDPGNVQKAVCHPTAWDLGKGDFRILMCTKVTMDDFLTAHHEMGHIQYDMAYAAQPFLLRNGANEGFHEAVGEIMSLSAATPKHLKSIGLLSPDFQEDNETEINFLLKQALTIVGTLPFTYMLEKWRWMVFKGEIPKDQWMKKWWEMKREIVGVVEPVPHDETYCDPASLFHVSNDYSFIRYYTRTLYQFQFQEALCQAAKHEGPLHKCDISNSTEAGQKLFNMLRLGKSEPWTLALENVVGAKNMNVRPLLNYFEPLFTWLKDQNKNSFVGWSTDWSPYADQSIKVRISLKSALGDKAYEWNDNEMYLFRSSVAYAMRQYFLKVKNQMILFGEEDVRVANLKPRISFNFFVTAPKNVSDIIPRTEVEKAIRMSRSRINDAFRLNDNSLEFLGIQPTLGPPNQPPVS
- test: SPR (Biacore T200), hACE2 amine-coupled to CM5 chip, peptide as analyte
Below, each entry is listed with its recorded pKd.
Convention used: pKd is expressed as -log10 of the molar concentration.

> print(dat)
                                     binder  metric.name  reported
1  YRYRYL (also called YRYRYL; second peptide) [Peptide13]          pKd      4.60
2  YKYKYL (also called YKYKYL; first peptide) [Peptide12]          pKd      4.67
3   YTYIQK (also called YTYIQK) [Peptide23]          pKd      4.33

Shift focus to the following entry.
Let me know recorded pKd for YSYIQK (also called YSYIQK; third peptide) [Peptide21] , thanks.
4.43
